# System: DFO2036
# assayInfo: qHTS profiling for inhibitors of Plasmodium falciparum proliferation (AID 504749); further: nearly all actives have a fitted effect of over 60% in size
# experimentalParameters: P. falciparum in erythrocytes, SYBR Green DNA, 72 h; series mostly up to 28.7 µM
Inconclusive results are not listed. The source made the active and inactive calls. The call rests on the fitted dose curve; in most records, active means well fitted inhibition curve with a large enough effect; inconclusive means small, poorly fitted or top-dose-only effect; inactive means flat fitted curve, though single readings scatter.
endpointName: outcome

Take a look at these entries with their results.
>>> experimentalresult("NCC(=O)CCC(=O)O")
"inactive"
>>> experimentalresult("COc1cc2[nH]c(=O)[nH]c(=O)c2cc1OC")
"inactive"
>>> experimentalresult("NC(=O)NNc1ccccc1")
"inactive"
>>> experimentalresult("CCCCc1ncc(/C=C(\\Cc2cccs2)C(=O)O)n1Cc1ccc(C(=O)O)cc1")
"inactive"
>>> experimentalresult("O=C(Oc1ccccc1C(=O)O)c1ccccc1O")
"inactive"

q: What outcome value was documented for this molecule, O=C(O)COc1nn(Cc2ccccc2)c2ccccc12 ?
a: inactive

q: Recorded outcome for CC(=O)Nc1ccc(/C=N/NC(N)=S)cc1 , please?
a: inactive

q: Which measured outcome value corresponds to [O-][n+]1cccc(CO)c1 ?
a: inactive

q: Any idea what its outcome is? The molecule is O=c1cc[nH]c(=S)[nH]1
a: inactive

q: What value of outcome has been recorded for this entry: COc1cc(C(=O)N2CCOCC2)cc(OC)c1OC
a: inactive

q: So what's the measured outcome for this one? CCOC(=O)c1ccc(O)cc1
a: inactive
